Attribution: PubChem BioAssay (NCI)

tested on: OVCAR-3 ovarian; test: NCI-60 one-dose screen, 48 h; details: 10 µM unless noted
This is part of a sample that, as a whole, favours compounds with a hit. Of some 83,000 tested, about 20% had one in any assay. Activity calls are given as the source filed them. How the source made its calls: active means growth percent below 10; inactive means the rest.
Possible outcomes: active, inactive

[
  {
    "COMPOUND": "OCc1cn(-c2ccc(Cl)cc2)nc1-c1ccc(O)cc1",
    "TARGET_OR_SYSTEM": "OVCAR-3 ovarian",
    "CLASS": "inactive"
  },
  {
    "COMPOUND": "CNCCCOc1c(Br)cc(CCNC(=O)/C(Cc2ccc(OC)c(Br)c2)=N/O)cc1Br",
    "TARGET_OR_SYSTEM": "OVCAR-3 ovarian",
    "CLASS": "inactive"
  },
  {
    "COMPOUND": "COc1cc2ncn3c(=O)c4c5c(sc4nc3c2cc1OC)CCCCC5",
    "TARGET_OR_SYSTEM": "OVCAR-3 ovarian",
    "CLASS": "inactive"
  },
  {
    "COMPOUND": "O=C(Nc1cccc(-n2ccc3c(NC(=O)c4ccccc4)nccc32)c1)Nc1ccc(Cl)c(C(F)(F)F)c1",
    "TARGET_OR_SYSTEM": "OVCAR-3 ovarian",
    "CLASS": "active"
  },
  {
    "COMPOUND": "O=[N+]([O-])c1ccc(NS(=O)(=O)c2cc(Cl)ccc2Cl)c2ccccc12",
    "TARGET_OR_SYSTEM": "OVCAR-3 ovarian",
    "CLASS": "inactive"
  },
  {
    "COMPOUND": "O=C(c1ccccc1)[C@H]1[C@@H]2CCCN2[C@]2(C(=O)Nc3ccc(F)cc32)[C@]12C(=O)Nc1ccccc12",
    "TARGET_OR_SYSTEM": "OVCAR-3 ovarian",
    "CLASS": "inactive"
  },
  {
    "COMPOUND": "Cc1cc(C)c(O)c(C(=O)CC(Br)C(=O)O)c1 (stereo not given)",
    "TARGET_OR_SYSTEM": "OVCAR-3 ovarian",
    "CLASS": "inactive"
  },
  {
    "COMPOUND": "NS(=O)(=O)c1ccc(CCN2C(=O)/C(=C\\c3ccc(Cl)cc3)C=C2c2ccc(Oc3ccccc3)cc2)cc1",
    "TARGET_OR_SYSTEM": "OVCAR-3 ovarian",
    "CLASS": "inactive"
  },
  {
    "COMPOUND": "CC(=O)Nc1ccc(OC(=O)c2ccccc2O)cc1",
    "TARGET_OR_SYSTEM": "OVCAR-3 ovarian",
    "CLASS": "inactive"
  },
  {
    "COMPOUND": "Nc1n[nH]c2cccc(C#Cc3cccc(NC(=O)c4cccc(C(F)(F)F)c4)c3)c12",
    "TARGET_OR_SYSTEM": "OVCAR-3 ovarian",
    "CLASS": "inactive"
  }
]

====

test system: ACHN renal; assay: NCI-60 one-dose screen, 48 h (100 = growth as untreated, 0 = no growth, -100 = all killed); conditions: 10 µM unless noted
Compounds without any hit were thinned out: in the full panel of roughly 83,000, 20% have a hit.

[
  {
    "MOLECULE": "COc1ccc(OCC(O)CN2CCN(c3ccc(Cl)cc3)CC2)cc1 (stereo not given)",
    "growth [%]": 101
  },
  {
    "MOLECULE": "CCC1S/C(=N\\N=C(/C)c2ccco2)N(c2ccccc2)C1=O (stereo not given)",
    "growth [%]": 110
  },
  {
    "MOLECULE": "c1ccc2c(c1)Oc1cccnc1-n1nccc1-2",
    "growth [%]": 99.7
  },
  {
    "MOLECULE": "Cc1ccc(-c2cn3cc([N+](=O)[O-])ccc3n2)cc1",
    "growth [%]": 73.4
  },
  {
    "MOLECULE": "Nc1nc2ccc(CNc3ccc(C(=O)NC(CC(=O)O)C(=O)O)cc3)cc2c(=O)[nH]1 (stereo not given)",
    "growth [%]": 33.1
  },
  {
    "MOLECULE": "CN(C)c1ncc(C#Cc2c(F)cccc2F)c2ccccc12",
    "growth [%]": 96.3
  },
  {
    "MOLECULE": "Nc1ncnc2c1c(-c1ccc(Oc3ccccc3)cc1)nn2C[C@H]1SSC[C@@H]1O",
    "growth [%]": 33.4
  },
  {
    "MOLECULE": "O=[N+]([O-])c1ccc(NS(=O)(=O)c2cc(Cl)ccc2Cl)c2ccccc12",
    "growth [%]": 78.9
  },
  {
    "MOLECULE": "N#Cc1c(N)nc2c(c1N)C(c1ccc(Cl)cc1)C1=C(CCCC1=O)N2c1sc2c(c1C#N)CCCC2 (stereo not given)",
    "growth [%]": 96.8
  },
  {
    "MOLECULE": "O=C(Nc1cccc(-n2ccc3c(NC(=O)c4ccccc4)nccc32)c1)c1cc(N2CCOCC2)cc(C(F)(F)F)c1",
    "growth [%]": 6
  }
]

====

test system: SW-620 colon; assay: NCI-60 one-dose screen, 48 h; conditions: 10 µM unless noted
Compounds without any hit were thinned out: in the full panel of roughly 83,000, 20% have a hit. Calls of active or inactive are those of the source. Rule for the calls: active = growth percent below 10; inactive = the rest.
Possible outcomes: yes (1) = active, no (0) = inactive

[
  {
    "SMILES_REPRESENTATION": "O=C(NC(=S)Nc1ccc(Cl)cc1)c1ccccc1",
    "CLASS": "no (0)"
  },
  {
    "SMILES_REPRESENTATION": "O=C(Nc1ccc(-n2ccc3c(NC(=O)c4ccccc4)nccc32)cc1)c1cccc(C(F)(F)F)c1",
    "CLASS": "no (0)"
  },
  {
    "SMILES_REPRESENTATION": "COc1ccc2c(c1)O/C(=C/c1ccc(OCC(=O)Nc3ccc(S(N)(=O)=O)cc3)cc1)C2=O",
    "CLASS": "no (0)"
  },
  {
    "SMILES_REPRESENTATION": "CC(C)CNCC(=O)Nc1ccc(Cc2ccc(NC(=O)CNCC(C)C)cc2)cc1",
    "CLASS": "no (0)"
  },
  {
    "SMILES_REPRESENTATION": "CCc1c(C)c2cc3c(c(C)c2oc1=O)OCC(=O)N3",
    "CLASS": "no (0)"
  },
  {
    "SMILES_REPRESENTATION": "[2H]c1nc(Nc2ncc(F)c(-c3cc(F)c4nc(C)n(C(C)C)c4c3)n2)c([2H])c([2H])c1CN1CCN(CC)CC1",
    "CLASS": "no (0)"
  },
  {
    "SMILES_REPRESENTATION": "COc1cc2c(cc1OCCCCC(=O)Nc1ccc(-c3nc4ccccc4s3)cc1)N=C[C@@H]1CCCN1C2=O",
    "CLASS": "yes (1)"
  },
  {
    "SMILES_REPRESENTATION": "O=C(Nc1ccc(-n2cc(-c3ccncc3)c(-c3ccc(O)c(Cl)c3)n2)cc1)c1ccc(Cl)c(C(F)(F)F)c1",
    "CLASS": "no (0)"
  },
  {
    "SMILES_REPRESENTATION": "Cc1cc2c(cc1C)N(C(=O)CCl)CCN2C(=O)CCl",
    "CLASS": "yes (1)"
  }
]

====

The reader will find reported growth values listed item by item below.
tested on: U251 CNS; experiment: NCI-60 one-dose screen, 48 h (100 = growth as untreated, 0 = no growth, -100 = all killed); settings: 10 µM unless noted
Compounds without any hit were thinned out: in the full panel of roughly 83,000, 20% have a hit.
OBSERVED_PROPERTY: growth (%)

[
  {
    "COMPOUND": "CC(C)C1(C(C)C)NC(=O)NC1=O",
    "UNIT_NAME": "%",
    "READOUT_VALUE": 103
  },
  {
    "COMPOUND": "CCC1S/C(=N\\N=C(/C)c2cc3ccccc3o2)N(c2ccccc2)C1=O (centres undefined)",
    "UNIT_NAME": "%",
    "READOUT_VALUE": 96.7
  },
  {
    "COMPOUND": "Cc1cccc(NCS(=O)(=O)O)c1",
    "UNIT_NAME": "%",
    "READOUT_VALUE": 87.8
  },
  {
    "COMPOUND": "COc1cc(Br)c(-c2nc(-c3ccccc3)c(-c3ccccc3)n2Cc2ccccc2)cc1OC",
    "UNIT_NAME": "%",
    "READOUT_VALUE": 64.1
  },
  {
    "COMPOUND": "COc1ccc(-c2nn(-c3cccc(Cl)c3)cc2-c2cc(-c3ccc(Br)cc3)[nH]c(=O)c2C#N)cc1",
    "UNIT_NAME": "%",
    "READOUT_VALUE": 90
  },
  {
    "COMPOUND": "O=S(=O)(CCN1CCOCC1)Nc1cncc(-c2ccc3ncnc(Nc4ccc(F)c(Cl)c4)c3c2)c1",
    "UNIT_NAME": "%",
    "READOUT_VALUE": 68.9
  },
  {
    "COMPOUND": "Fc1cccc(F)c1C#Cc1ccc2cccnc2c1",
    "UNIT_NAME": "%",
    "READOUT_VALUE": 80.6
  },
  {
    "COMPOUND": "O=C1CCC(c2c(O)cc(O)c3c(=O)c(O)c(-c4ccc(O)c(O)c4)oc23)N1 (centres undefined)",
    "UNIT_NAME": "%",
    "READOUT_VALUE": 101
  },
  {
    "COMPOUND": "COc1ccc(/C=C/C(=O)c2ccc(-n3cc(CN4CCN(c5cc6c(cc5F)c(=O)c(C(=O)O)cn6C5CC5)CC4)nn3)cc2)cc1OC",
    "UNIT_NAME": "%",
    "READOUT_VALUE": 10.6
  },
  {
    "COMPOUND": "CC(=O)N1N=C(CCC(=O)c2nc3ccc([N+](=O)[O-])cc3[nH]2)OC1c1ccc(O)cc1 (centres undefined)",
    "UNIT_NAME": "%",
    "READOUT_VALUE": 109
  },
  {
    "COMPOUND": "Cc1cccc(NC(=O)CCc2ccc(N3C(N)=NC(N)=NC3(C)C)cc2)c1",
    "UNIT_NAME": "%",
    "READOUT_VALUE": 36.9
  },
  {
    "COMPOUND": "O=[N+]([O-])c1cccc(C2c3ccccc3Oc3ccccc32)c1",
    "UNIT_NAME": "%",
    "READOUT_VALUE": 94.7
  },
  {
    "COMPOUND": "CC(C)(C)NCC(O)COc1c(Br)c(Br)c(Br)c2c1OC(C)(C)C2 (centres undefined)",
    "UNIT_NAME": "%",
    "READOUT_VALUE": -92.4
  },
  {
    "COMPOUND": "COc1cc(-c2nc3ccccc3s2)ccc1OCc1nc2n(n1)S(=O)(=O)c1ccccc1N2C",
    "UNIT_NAME": "%",
    "READOUT_VALUE": 73.2
  },
  {
    "COMPOUND": "O=C(NCCNc1nccc(-c2c(-c3cccc(O)c3)nc3sccn23)n1)c1cccc(C(F)(F)F)c1",
    "UNIT_NAME": "%",
    "READOUT_VALUE": 84.8
  },
  {
    "COMPOUND": "O=C(Nc1ccc(-n2ccc3c(NC(=O)c4ccccc4)ncnc32)cc1)c1ccc(Cl)c(C(F)(F)F)c1",
    "UNIT_NAME": "%",
    "READOUT_VALUE": -62.9
  },
  {
    "COMPOUND": "COc1ccc(C(=O)Cn2cnc3c(Nc4cc(C(=O)Nc5ccc(N6CCN(CCO)CC6)cc5)ccc4C)ncnc32)cc1",
    "UNIT_NAME": "%",
    "READOUT_VALUE": 105
  },
  {
    "COMPOUND": "Nc1n[nH]c2cccc(C#Cc3cccc(NC(=O)c4cccc(C(F)(F)F)c4)c3)c12",
    "UNIT_NAME": "%",
    "READOUT_VALUE": 49.4
  },
  {
    "COMPOUND": "Nc1nc(-c2cc3c(cc2Cl)NC(=O)/C3=C/c2ccc(Cl)cc2)cs1",
    "UNIT_NAME": "%",
    "READOUT_VALUE": 21.8
  }
]
